src = the supplement of paper PMC10567573

test: protein stability index of a GFP-peptide fusion (GPS, HEK-293T) (PSI 1-6); higher = more stable; conditions: treatment: DMSO; c terminus: a fixed tail appended;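 also: 24-mer peptide tiles fused after GFP, lentivirally expressed, FACS-sorted into six equal bins by GFP/DsRed ratio, decoded by Illumina sequencing, PSI is the read-weighted mean bin number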
Assign protein stability index to each entry below.
Respond using a number only.

Query string: Name the recorded protein stability index for GKEDSTLQLLREENRALQQLLEQK [CBY2] .
Result string: 4.81

Query string: Repeat with VKEGGSYGFSLKTVQGKKGVYMTD [PDZK1]
Result string: 3.39

Query string: Could you do the same for VETLLRHGAHINLQSLKFQGGHGP [RIPK4] , please?
Result string: 2.63

Query string: Request: HVDPEEPWSPCSARFITDFLDNGY [ADAMTS4]
Result string: 2.57

Query string: Also LRNKLRELCVKLMFLHPVDYGRKA [SMG5] , if possible.
Result string: 3.21

Query string: Input MDVGETAMVTADSKYCYGPQGSRS [FKBP8]
Result string: 4.36

Query string: Similarly, ALWKHLKSMHREELEKSGHGQAGQ [ZBED2] ?
Result string: 2.98

Query string: Next up: ERFSSAPCLLGSRVFSQGSHAWEV [TRIM35]
Result string: 2.51

Query string: Also, RHQRTHTGEKPYQCNICGKCFSCN [ZNF263] please.
Result string: 4.08

Query string: Next: RRGLLVSLNELMIVIGILSAYISN [SLC2A12]
Result string: 3.05

Query string: Record: ALPKATILDLSCNKLTTLPSDFCG [LRRC59]
Result string: 2.82

Query string: And for EDLAQKLNLEEDRIQIWFQNRRAK [HESX1] ?
Result string: 4.12

Query string: Then LRYSVVEESEPGTLVGNVAQDLGL [PCDHGC5] ?
Result string: 3.94

Query string: Cool, now EEPTERGNLEVGEPQSEPVRVLDM [FBXO34]
Result string: 5.34

Query string: Thanks! And TSSQKALMLELKSLQEEPVEGFRI [UBE2R2] ?
Result string: 3.11

Query string: Cool, now QQAEKILKSMDKNGTMTIDWNEWR [SLC25A25]
Result string: 3.36

Query string: Please do the same for SRHLNSQVKKTTTRWCHIVRDSDS [PHTF1] as well.
Result string: 2.33

Query string: Also need LGCNRQSWCLKRYDLEYWAFHDGQ [TRIM14] , thanks.
Result string: 2.5

Query string: Okay, and IIESFTELARIVLLRHRMNWLGRP [RAB40A] ?
Result string: 3.18

Query string: One more sequence: EGSPRNLGTPTSSTPRPSITPTKK [C2CD2L]
Result string: 5.35

Query string: Cool, now KSWLNGFRPKDQTSVGMSFVAGGI [SLC25A39]
Result string: 2.2

Query string: Also need LELAQFHNAHQLAAWCLHHICTNY [RHOBTB1] , thanks.
Result string: 2.7

Query string: What do you get for GVSANASKAWHQKSHFQNSREWSG [PBXIP1] ?
Result string: 3.22

Query string: Record: QRITQEQEKKLSFIEALIQQYQEQ [TRIM63]
Result string: 2.68

Query string: Next record, please: SWAKSIPGFSSLSLSDQMSVLQSV [ESRRA]
Result string: 2.5

Query string: Same lookup for PHCSDLMPSGSEEKILRELSEEEE [KCNA4] , please.
Result string: 5.64

Query string: Please do the same for RQTSTKAVQHFYNIKLEGKVPMHK [ESRRG] as well.
Result string: 3.32

Query string: Another: SLEISPQNVDVNVHPTKHEVHFLH [MLH1]
Result string: 3.46

Query string: Entry YRERRDSDTYRCEERSPSFGEDYY [CLK3] please
Result string: 4.37

Query string: Now the sequence PPPCKFGEGKLSKRLKHKDDSVMK [C22orf31]
Result string: 4.51

Query string: Follow-up item: AVGGRNAAGELPTVECYNPRTNEW [KLHL13]
Result string: 4.2

Query string: Now consider YVTPSDFDQLKQFLTFDKQVLRFY [EFHC1] and answer again.
Result string: 2.03

Query string: Try AIEGIPGSDYVNANYIDGYRKQNA [PTPRD] next.
Result string: 4.09

Query string: Repeat for the following sequence: TFDNDYSLSELLSQLDSGVSQAVE [RIPK4]
Result string: 4

Query string: And for IIALIALSVGQYNCPGQYTFSMPS [CD69] ?
Result string: 3.51

Query string: Also WDPNTGFDLNNLDPELKNLFDMCG [WASL] , if possible.
Result string: 3.05

Query string: Field entry: DPFVCRLRHLSPTPSEEHMKNKNN [OR4A15]
Result string: 4.73

Query string: Let us now turn to VKGSRVTVMEKCSDGWWRGSYNGQ [NCK2]
Result string: 2.13

Query string: Another sequence: QGLLHEAGSTDDRIVVPQRGRSTR [SPNS1]
Result string: 5.13

Query string: Next: PSNTGSRTTSVRCRGIPRGPVRPA [NEK8]
Result string: 3.89

Query string: Repeat with SLRLWDTFGDHHKDRRFAYGRSDV [RHOBTB1]
Result string: 2.87

Query string: Field entry: RRSRDPGYDHLWDETLSSSHQKCP [PLEKHN1]
Result string: 3.81

Query string: // same read-out, input: IIKKVAEVALDKGCSQFRLAVLDW [SAT2]
Result string: 2.77

Query string: Proceed to DKRNYPSLELDKMAHGYGEESEEE [CHGB]
Result string: 5.63

Query string: IGWFPSNYVLEEVDEAAAESPSFL [NCK2] , same question.
Result string: 3.93

Query string: What would you report for RGADDAMESSKPGPVQVVLVQKDQ [ATL3] ?
Result string: 5.09

Query string: Also need LLLCGTISLRVYRKVLQAVHRGDG [RTN2] , thanks.
Result string: 2.66

Query string: And the next one, NWFNVTGSDKCVFLKNTEVSSMEC [CD69] ?
Result string: 2.82

Query string: Next record, please: FWDLFRSKDNMRTRIMIGLTLVFF [SLC2A12]
Result string: 2.53

Query string: Try DIDQMFSTLLGEMDLLTQSLGVDT [APBB1IP] next.
Result string: 3.16

Query string: Now consider RAVLGANDPEKNFLTTAIRPHGIF [NSDHL] .
Result string: 2.73

Query string: Thanks! And ETYIHLLAMKIKVGSDDLERIEAR [PSD2] ?
Result string: 2.26

Query string: Same for MQVFAKLGTDPTHVMGLYPDLLPT [VPS39]
Result string: 2.16
